Ki values for Carbonic anhydrase 2 (Homo sapiens) compiled from several publications are listed below.
// thresholds for Ki classes: low value = under 50 nM, medium value = from 50 nM up to 300 nM, high value = 300 nM and over

The examples below pair each entry with its known result.
>>> class("Cc1ccc2c(c1)C(=O)N(c1ccc(C(=O)O)cc1)C2=O")
"high value"
>>> class("CC(C)(C)OC(=O)N(CCNC(=O)C(F)(F)F)CCN(CCNC(=O)C(F)(F)F)C(=O)OC(C)(C)C")
"high value"
>>> class("CC(=O)Nc1ccc(S(=O)(=O)Nc2nnc(S(N)(=O)=O)s2)cc1Cl")
"low value"

Which class is correct for the following compound? `N/C(=N\S(=O)(=O)c1ccccc1SCc1cccc(C(F)(F)F)c1)NNc1nc(Cl)nc(NCc2ccc(S(N)(=O)=O)cc2)n1`
low value

Now consider `CN(C)c1nc(-c2ccc(S(N)(=O)=O)cc2)cn2c(=O)n(-c3ccccc3)nc12` and answer again.
high value

Now consider `CC(=O)Nc1ccc2oc(=O)c3c(C)nn(-c4ccccc4)c3c2c1` and answer again.
high value

Now consider `C[C@H](CCC(=O)Nc1ccc(S(N)(=O)=O)cc1)[C@H]1CC[C@H]2[C@@H]3[C@H](O)C[C@@H]4C[C@H](O)CC[C@]4(C)[C@H]3CC[C@]12C` and answer again.
medium value

Now consider `COC(=O)C1=Cc2cc(C)ccc2OC(=O)C1` and answer again.
high value

Now consider `CCC(=O)c1c(O)ccc2ccc(=O)oc12` and answer again.
high value

Now consider `Cc1nn(-c2ccccc2)c2c1c(=O)oc1ccc([N+](=O)[O-])cc12` and answer again.
high value

Now consider `COc1ccc(S(=O)(=O)N(CC(=O)NO)Cc2ccccc2)cc1` and answer again.
medium value

Now consider `CCCC(CCC)C(=O)NCCC(=O)Nc1nnc(S(N)(=O)=O)s1` and answer again.
low value

Now consider `NS(=O)(=O)c1ccc(NS(=O)(=O)c2ccc(N/C(S)=N/N3CCOCC3)cc2)cc1` and answer again.
medium value

Now consider `CC1(C)OC[C@@H]2O[C@@]3(C(=O)NNS(N)(=O)=O)OC(C)(C)O[C@H]3[C@@H]2O1` and answer again.
high value

Now consider `N/C(=N\S(=O)(=O)c1ccccc1SCc1ccccc1)NNc1nc(Cl)nc(NCc2ccc(S(N)(=O)=O)cc2)n1` and answer again.
low value

Now consider `C/C(=N\Nc1nc(-c2ccc(Cl)cc2)cs1)c1nnn(-c2ccc(Cl)cc2)c1C` and answer again.
high value

Now consider `O=C(CC(=O)Nc1ccc2c(c1)B(O)OC2)Nc1ccc2c(c1)B(O)OC2` and answer again.
high value

Now consider `COc1cc(/C=C/C(=O)OCCc2cccc(O)c2)ccc1O` and answer again.
high value

Now consider `O=C1Nc2ccc(F)cc2S(=O)(=O)N1` and answer again.
high value
